tgt: T1, TNFR1 (Homo sapiens, UniProt P19438)
T1 chain: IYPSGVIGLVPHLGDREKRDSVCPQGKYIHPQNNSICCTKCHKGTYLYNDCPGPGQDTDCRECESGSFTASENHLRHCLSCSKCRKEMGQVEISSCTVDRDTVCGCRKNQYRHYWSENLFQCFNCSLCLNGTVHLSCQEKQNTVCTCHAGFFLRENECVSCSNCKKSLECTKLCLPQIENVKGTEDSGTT
test_method_notes: yeast display SC50
Reported apparent Kd (screen) by item:
The response must be a number in nM with no trailing unit.

get_value(item= L41Q (designed binder) MTLQELLREEALRRAEAEAFRYALELLAEKFPEQKEYLLDQAEEIESQIRSLSGVDVEDVRKFLDKEWAWVKELLAEHPAELAEVEAARAARLAELRAEVEAKVAA , readout=apparent Kd (screen)) returns 2.48

get_value(item= I49L (designed binder) MTLQELLREEALRRAEAEAFRYALELLAEKFPEQKEYLLDLAEEIESQLRSLSGVDVEDVRKFLDKEWAWVKELLAEHPAELAEVEAARAARLAELRAEVEAKVAA , readout=apparent Kd (screen)) returns 0.539

get_value(item= A23T (designed binder) MTLQELLREEALRRAEAEAFRYTLELLAEKFPEQKEYLLDLAEEIESQIRSLSGVDVEDVRKFLDKEWAWVKELLAEHPAELAEVEAARAARLAELRAEVEAKVAA , readout=apparent Kd (screen)) returns 0.539

get_value(item= A98M (designed binder) MTLQELLREEALRRAEAEAFRYALELLAEKFPEQKEYLLDLAEEIESQIRSLSGVDVEDVRKFLDKEWAWVKELLAEHPAELAEVEAARAARLAELRMEVEAKVAA , readout=apparent Kd (screen)) returns 0.653

get_value(item= A17L (designed binder) MTLQELLREEALRRAELEAFRYALELLAEKFPEQKEYLLDLAEEIESQIRSLSGVDVEDVRKFLDKEWAWVKELLAEHPAELAEVEAARAARLAELRAEVEAKVAA , readout=apparent Kd (screen)) returns 0.277

get_value(item= A69Y (designed binder) MTLQELLREEALRRAEAEAFRYALELLAEKFPEQKEYLLDLAEEIESQIRSLSGVDVEDVRKFLDKEWYWVKELLAEHPAELAEVEAARAARLAELRAEVEAKVAA , readout=apparent Kd (screen)) returns 1.05

get_value(item= L24F (designed binder) MTLQELLREEALRRAEAEAFRYAFELLAEKFPEQKEYLLDLAEEIESQIRSLSGVDVEDVRKFLDKEWAWVKELLAEHPAELAEVEAARAARLAELRAEVEAKVAA , readout=apparent Kd (screen)) returns 0.653

get_value(item= F63N (designed binder) MTLQELLREEALRRAEAEAFRYALELLAEKFPEQKEYLLDLAEEIESQIRSLSGVDVEDVRKNLDKEWAWVKELLAEHPAELAEVEAARAARLAELRAEVEAKVAA , readout=apparent Kd (screen)) returns 2.05
